Here the recorded growth is given for each entry.
Tested on: CAKI-1 renal
Test: NCI-60 one-dose screen, 48 h (100 = growth as untreated, 0 = no growth, -100 = all killed)
Conditions: 10 µM
This is part of a sample that, as a whole, favours compounds with a hit. Of some 83,000 tested, about 20% had one in any assay.
Express your answer in %, writing the number without its unit.

QUERY: Consider the compound Cc1ccc(S(=O)(=O)c2nc(-c3ccccc3)oc2S(=O)(=O)CC(=O)N2CCCC2)cc1 and give its recorded growth.
RESULT: -100

QUERY: Consider the compound O=c1cc(-c2ccccc2)oc2cc(OCCCCNCc3ccccc3)cc(O)c12 and give its recorded growth.
RESULT: 25.7

QUERY: Consider the compound CN1CCN(c2ccc(Nc3nc(NCCCNC(=O)c4ccc(Cl)cc4)c4sccc4n3)cc2)CC1 and give its recorded growth.
RESULT: 79.9

QUERY: Consider the compound NS(=O)(=O)c1ccc(NC(=O)CSc2ccc(-c3ccccc3)nn2)c(Br)c1 and give its recorded growth.
RESULT: 84.5

QUERY: Consider the compound C=C(C)[C@@H]1CC[C@]2(C)[C@H](CC=C3[C@@H]4CC(C)(C)CC[C@]4(C(=O)N4CCOCC4)CC[C@]32C)[C@@]1(C)CCCN and give its recorded growth.
RESULT: -96.3

QUERY: Consider the compound CCCn1c(=O)c2[nH]c(-c3ccc(OCc4nc5ccccc5[nH]4)cc3)nc2n(CCC)c1=O and give its recorded growth.
RESULT: 39.1

QUERY: Consider the compound N#Cc1c(-c2ccc(Cl)cc2)cc(-c2ccccc2)nc1OCc1ccccc1 and give its recorded growth.
RESULT: 73.8

QUERY: Consider the compound COC1=C[C@]23CCC(=O)N2CCc2cc4c(cc2[C@@H]3[C@@H]1OC(=O)CCCC(C)C)OCO4 and give its recorded growth.
RESULT: 48

QUERY: Consider the compound COc1cc(/C=C/C(=O)c2ccc(NC(=O)CSc3nnc(-c4c[nH]c5ccccc45)n3-c3ccccc3)cc2)cc(OC)c1OC and give its recorded growth.
RESULT: 95.7

---

Here the recorded growth is given for each entry.
System: T-47D breast
Test: NCI-60 one-dose screen, 48 h (100 = growth as untreated, 0 = no growth, -100 = all killed)
Conditions: 10 µM
About 83,000 compounds went through this panel and 20% of them were active in at least one assay; those are over-represented in the sample as a whole.
Express your answer in %, writing the number without its unit.

# compound, study target, units of measure, growth
records = [
    ("N#Cc1c(NC(=O)c2cccc(C(F)(F)F)c2)sc2c1CCC(O)=C2", "T-47D breast", "%", 16.5),
    ("O=C1NC(=NC23CC4CC(CC(C4)C2)C3)N/C1=C\\c1ccc2ncoc2c1", "T-47D breast", "%", -0.573),
    ("CN1C(=O)N(C)C2SC(N/N=C/c3ccccc3F)=NC21 (stereo not given)", "T-47D breast", "%", 64.3),
    ("O=C(Cn1nc(-c2ccccc2)ccc1=O)NNC(=S)NC1CCCCC1", "T-47D breast", "%", 82),
    ("Cc1nc2c(cnn2-c2ccccc2)c(=O)n1-c1ccc(NC(=O)c2ccc(F)cc2)cc1", "T-47D breast", "%", 18),
    ("COc1ccc(-c2nc(-c3ccccc3)c(-c3ccccc3)n2-c2ccc(S(=O)(=O)Nc3ncccn3)cc2)cc1OC", "T-47D breast", "%", 43.1),
    ("CN(C(=O)c1ccc(C(C)(C)C)cc1)c1sc2c(c1C#N)CCC(=O)C2", "T-47D breast", "%", -40.3),
    ("O=C(Nc1nc2ccc([N+](=O)[O-])cc2s1)Nc1ccccc1I", "T-47D breast", "%", -16.7),
]

QUERY: Please report growth with T-47D breast for item Cc1ccc(CSc2nc(Cl)c(C#N)c(-c3ccc(F)cc3)n2)cc1 .
RESULT: 31.3

QUERY: Please report growth with T-47D breast for item O=C1Nc2cc(Cl)ccc2/C1=C/c1ccc(OCc2ccc(Br)cc2F)cc1 .
RESULT: -48.4

---

Test system: A498 renal
Assay: NCI-60 one-dose screen, 48 h (100 = growth as untreated, 0 = no growth, -100 = all killed)
Conditions: 10 µM
Procedure: Growth inhibition of the A498 human tumor cell line is measured as a screen for anti-cancer activity. Cells are grown in 96 well plates and exposed to the test compound for 48 hours. Compounds are tested at a single concentration, which is 10^-5 M for most compounds. The reported endpoint is percent growth (GI% or GIPRCNT), where numbers from 0 - 100% represent growth inhibition, and numbers from -100% - 0 represent cell death. For example, a value of 40 represents 60% growth inhibition. […]
The panel holds about 83,000 compounds, 20% with a hit somewhere; the sample as a whole holds those more often. The source made the active and inactive calls. The calls were made as follows: active = growth percent below 10; inactive = the rest.
measured quantity: growth

Reference set, count: 4
# molecular string, measured quantity, assay result
records = [
    ("O=C(Nc1nc2ccccc2s1)c1ccc(Br)cc1", "growth", "115% (inactive)"),
    ("c1ccc(C(=C(c2ccc(OCCN3CCCCC3)cc2)c2ccc(OCCN3CCCCC3)cc2)C2CCCC2)cc1", "growth", "102% (inactive)"),
    ("COc1ccc(NC(=O)Cn2c(/C=C/c3ccc(N(C)C)cc3)nc3ccccc3c2=O)cc1", "growth", "56.5% (inactive)"),
    ("Cc1ccc2nc(COc3ccc(C(=O)NNC(=S)NCCc4ccccc4)cc3)[nH]c2c1", "growth", "134% (inactive)"),
]

// next item, growth requested
QUERY: Consider the compound O=C(CSc1nnc(-c2c[nH]c3ccccc23)n1-c1ccccc1)Nc1ccc(C(=O)/C=C/c2ccc(Cl)cc2)cc1 and give its recorded growth.
RESULT: 90.7% (inactive)

---

Test system: HOP-92 NSCLC
Assay: NCI-60 one-dose screen, 48 h (100 = growth as untreated, 0 = no growth, -100 = all killed)
Conditions: 10 µM
Compounds without any hit were thinned out: in the full panel of roughly 83,000, 20% have a hit.
Use growth to assign classes; range list: low end: < -20%; middle: ≥ -20% and < 80%; high end: ≥ 80%

Look over these answered cases.
# compound, cat
records = [
    ("Cc1ccc(-c2ccc(SCC(=O)Nc3ccc(Cl)c(C(F)(F)F)c3)nn2)cc1", "middle"),
    ("CC(=C(c1ccc(OCCN2CCCCCC2)cc1)c1ccc(OCCN2CCCCCC2)cc1)c1ccc(Cl)cc1", "low end"),
    ("Cc1ccc(/C=C/C(=O)c2ccc(NC(=O)CSc3nnc(-c4c[nH]c5ccccc45)n3-c3ccccc3)cc2)c(C)c1", "middle"),
]

QUERY: Pick a category. Item: CN1CCN(c2ccc(Nc3nc(NCCCNC(=O)c4ccc(F)cc4)c4sccc4n3)cc2)CC1
RESULT: middle

QUERY: Pick a category. Item: CN(CCF)c1ccc(/C=C/C(=O)c2ccc(N)cc2O)cc1
RESULT: high end

QUERY: Pick a category. Item: COc1ccc(C(=O)/C=C/c2cc(C(F)(F)F)cc(C(F)(F)F)c2)cc1S(N)(=O)=O
RESULT: low end

QUERY: Pick a category. Item: COC(=O)C(Cc1ccc(O)c(O)c1)NC(=O)C(CSC/C=C(\C)CCCC(C)CCCC(C)CCCC(C)C)NC(C)=O (centres undefined)
RESULT: middle

QUERY: Pick a category. Item: Nc1nc2c(F)c(F)c(F)c(F)c2s1
RESULT: high end

---

Tested on: MDA-MB-231 breast
Assay: NCI-60 one-dose screen, 48 h (100 = growth as untreated, 0 = no growth, -100 = all killed)
Details: 10 µM
The panel holds about 83,000 compounds, 20% with a hit somewhere; the sample as a whole holds those more often.
Could you mark each record rule met if its growth falls strictly under 50%, and rule not met if it equals or exceeds it?

# compound, cat
rows = [
    ("O=C(CSc1nnc(-c2c[nH]c3ccccc23)n1-c1ccccc1)c1ccccc1", "rule met"),
    ("CC1(c2ccccc2)NC(=O)N(CC(=O)Nc2ccc(C(=O)/C=C/C=C/c3ccccc3)cc2)C1=O (stereo not given)", "rule not met"),
    ("CN1CCO/C1=C(/NC(=O)c1ccc(Cl)cc1)[P+](c1ccccc1)(c1ccccc1)c1ccccc1", "rule not met"),
    ("Cn1cc(/C=N/Nc2cccc(Cl)n2)c2ccccc21", "rule not met"),
]

API: the following record is the query input.
QUERY: Consider the compound N#Cc1c(NC(=O)c2ccc(C(F)(F)F)cc2)sc2c1CCC(=O)C2 . Is its growth strictly less than 50%?
RESULT: rule met

---

System: NCI-H522 lung
Assay: NCI-60 one-dose screen, 48 h (100 = growth as untreated, 0 = no growth, -100 = all killed)
Conditions: 10 µM
Compounds without any hit were thinned out: in the full panel of roughly 83,000, 20% have a hit.
measured quantity: growth (%)
Express your answer in %, writing the number without its unit.

Reference set, count: 5
# molecule, growth (%)
data = [
    ("Cc1ccc(-c2nc(Nc3ccc(C)c(S(N)(=O)=O)c3)c3ccccc3n2)cc1", 112),
    ("CC(C)c1ccc(C(=O)Nc2sc3c(c2C(N)=O)CCC(=O)C3=O)cc1", 84),
    ("O=C(c1ccc(Cl)cc1)C1[C@H](c2ccccc2Br)[C@@H](c2ccccc2)NC12C(=O)Nc1ccc(Cl)cc12 (some centres undefined)", 3.07),
    ("COc1ccc(-c2nc(Nc3ccccc3S(N)(=O)=O)c3ccccc3n2)cc1", 59.7),
    ("CC1(c2ccccc2)NC(=O)N(CC(=O)Nc2ccc(C(=O)/C=C/c3ccc(Br)cc3)cc2)C1=O (centres undefined)", 64.3),
]

QUERY: Consider the molecule O=C(c1ccc(O)cc1)C1[C@H](c2ccc(Br)cc2)[C@@H](c2ccccc2)NC12C(=O)Nc1ccc(Br)cc12 (some centres undefined) and give its recorded growth.
RESULT: -41.6

QUERY: Consider the molecule C/C(=C\CSc1ccccc1C(=O)O)CCCC(C)CCCC(C)CCCC(C)C (centres undefined) and give its recorded growth.
RESULT: 23.3

QUERY: Consider the molecule O=c1[nH]c2ccccc2cc1CSc1ccc(Nc2nccc(-c3ccc4c(c3)OCO4)n2)cc1 and give its recorded growth.
RESULT: 96.9

QUERY: Consider the molecule COc1ccc2[nH]cc(/C=N/Nc3cccc(Cl)n3)c2c1 and give its recorded growth.
RESULT: 27.1
